system_tested: Adenosine receptor A1 (hamster)
test_details: Binding affinity for adenosine A1 receptor determined using hamster DDT1 cell membranes with [3H]CCPA as radioligand
recorded_endpoint: Ki (nM)

Worked cases, answers included:
# compound, Ki / nM
records = [
    ("O=C(NC1CC1)OC[C@H]1OC(n2cnc3c(NC4CCOC4)ncnc32)[C@H](O)[C@@H]1O (stereo not given in full)", 209),
    ("CCNC(=S)OC[C@H]1OC(n2cnc3c(NC4CCOC4)ncnc32)[C@H](O)[C@@H]1O (stereo not given in full)", 33),
    ("O[C@@H]1[C@@H](COC(=S)NC2CCC2)OC(n2cnc3c(NC4CCOC4)ncnc32)[C@@H]1O (stereo not given in full)", 148),
]

(1) CCNC(=O)OC[C@H]1OC(n2cnc3c(NC4CCOC4)ncnc32)[C@H](O)[C@@H]1O (stereo not given in full)
(2) C=CCNC(=S)OC[C@H]1OC(n2cnc3c(NC4CCOC4)ncnc32)[C@H](O)[C@@H]1O (stereo not given in full)
Field: lower recorded Ki (choose 1 or 2 ) Label of pick, please.
2
